Test system: Enterococcus faecalis
protocol.notes: Antimicrobial activity against vancomycin-resistant Enterococcus faecalis NCTC-12201 by serial dilution method
Assay type: functional
observed.property: MIC (µg/mL)
Give the value in µg/mL but do not write µg/mL after it.

smiles_repr=C#CCO[C@H]1[C@H](C)[C@@H](O[C@@H]2O[C@H](C)C[C@H](N(C)C)[C@H]2O)[C@@]2(C)CC(C)=C(O2)[C@H](C)[C@@H](OC(=O)C(C)C)[C@](C)(OC(=O)C(C)C)[C@@H](CC)OC(=O)[C@@H]1C value_measured=16

Attention now shifts to the item below.
Which MIC value belongs to CC[C@H]1OC(=O)[C@H](C)[C@@H](OCc2cn(-c3cnc4ccccc4c3)nn2)[C@H](C)[C@@H](O[C@@H]2O[C@H](C)C[C@H](N(C)C)[C@H]2O)[C@@]2(C)CC(C)=C(O2)[C@H](C)[C@@H](OC(=O)C(C)C)[C@]1(C)OC(=O)C(C)C ?
32

The origin of these recorded values is ChEMBL document CHEMBL1140490.
